- target system: serotonin transporter (Macaca mulatta, UniProt Q9MYX0)
- Construct: The serotonin transporter was assayed in caudate-putamen membranes using conditions similar to those for the dopamine transporter; from tissue; host or cells: caudate-putamen membranes of cynomolgus or rhesus monkey brain
- Sequence (Q9MYX0 whole entry): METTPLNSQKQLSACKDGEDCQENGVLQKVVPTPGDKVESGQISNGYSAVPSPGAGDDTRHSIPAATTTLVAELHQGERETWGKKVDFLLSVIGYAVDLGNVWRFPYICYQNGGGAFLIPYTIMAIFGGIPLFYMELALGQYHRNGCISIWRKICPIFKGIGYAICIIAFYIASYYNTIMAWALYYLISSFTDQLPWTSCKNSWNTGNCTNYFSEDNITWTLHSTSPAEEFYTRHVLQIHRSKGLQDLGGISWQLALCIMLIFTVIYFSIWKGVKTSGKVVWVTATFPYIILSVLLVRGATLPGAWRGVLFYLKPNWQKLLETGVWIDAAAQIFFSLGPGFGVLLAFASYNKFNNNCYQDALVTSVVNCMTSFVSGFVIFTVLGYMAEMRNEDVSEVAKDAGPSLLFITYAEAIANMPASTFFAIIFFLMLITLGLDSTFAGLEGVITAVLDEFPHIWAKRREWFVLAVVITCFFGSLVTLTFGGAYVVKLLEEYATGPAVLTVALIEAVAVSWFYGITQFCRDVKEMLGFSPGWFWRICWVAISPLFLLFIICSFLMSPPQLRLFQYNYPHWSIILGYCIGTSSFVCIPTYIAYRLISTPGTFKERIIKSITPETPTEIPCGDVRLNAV
- measurement notes: Serotonin transporter assay: inhibition of {3H}citalopram binding in caudate-putamen membranes
- Set-up: species or system rhesus or cynomolgus monkey
- assay context: IC50 (nM) SERT, monkey caudate-putamen, mean of 2 or more independent experiments in triplicate
Consider the following compounds and their measured IC50 readings.

- compound: "COC(=O)C1=C(c2ccc(F)cc2)C[C@@H]2C[C@@H](O)[C@H]1N2C (racemic)"
  IC50: "> 10000 nM"
- compound: "COC(=O)C1=C(c2ccc(F)cc2)CC2C(O)CC1N2C (stereo not shown)"
  IC50: "> 20000 nM"
- compound: "COC(=O)C1C(c2ccccc2)CC2[C@@H](O)CC1N2C (stereo partly shown)"
  IC50: "> 20000 nM"
- compound: "COC(=O)[C@@H]1[C@H]2[C@H](O)C[C@@H](C[C@@H]1c1ccc(F)cc1)N2C (racemic) [Compound 15c]"
  IC50: "> 10000 nM"
